Test: Membrane permeability of the compound at pH 7.4 by PAMPA
Type: physicochemical
Settings: read-out: Peff
Reported Property: Papp (×10⁻⁶ cm/s)

(1) O=C(O)c1ccnc(-c2cn([C@@H]3CCCN(C(=O)c4ccccc4)C3)nn2)c1
(2) COC(=O)c1ccnc(-c2cn([C@@H]3CCCN(C(=O)c4ccccc4)C3)nn2)c1
IN: Smaller Papp value, 1 vs 2 ? To answer, give the label that identifies your chosen option.
OUT: 1
(1: 0.69 ×10⁻⁶ cm/s, 2: 52 ×10⁻⁶ cm/s)

---

Assay: Membrane permeability of the compound at pH 5 by PAMPA
Assay type: physicochemical
Conditions: read-out: Peff
Reported Property: Papp (nm/s)

(I) O=C(O)c1ccnc(-c2cn([C@@H]3CCCN(C(=O)c4ccccc4)C3)nn2)c1
(II) COC(=O)c1ccnc(-c2cn([C@@H]3CCCN(C(=O)c4ccccc4)C3)nn2)c1
IN: Smaller Papp value, I vs II ? To answer, give the label that identifies your chosen option.
OUT: I
(I: 19 nm/s, II: 560 nm/s)
